measurement.protocol: Oral bioavailability in Beagle dog at 1 mg/kg
Format: ADME, organism-based, Canis lupus familiaris
particulars: in vivo
measured.parameter: bioavailability (%)
Report the value in % with no unit label.

Using known records, supply bioavailability for CCc1nc(-c2ccc3c(c2)CC[C@H]3NC(=O)c2cnn(C)c2)no1
45

* * *

measurement.protocol: Half life in mouse at 0.5 mg/kg, iv
Assay type: ADME, organism-based
particulars: in vivo
measured.parameter: half-life (h)
Quick note: give the figure in h, leave out the unit.

Kindly indicate its recorded half-life. Item: CCc1nc(-c2ccc3c(c2)CC[C@H]3NC(=O)c2cnn(C)c2)no1 [AFICAMTEN]
4.5

* * *

measurement.protocol: Half life in Sprague-Dawley rat at 3 mg/kg, po
Type: ADME, organism-based
particulars: in vivo
measured.parameter: half-life (h)
Give the number; h is assumed, so skip it.

Fill in half-life for record CCc1nc(-c2ccc3c(c2)CC[C@H]3NC(=O)c2cnn(C)c2)no1
3.5

* * *

measurement.protocol: AUC (0 to t) in Sprague-Dawley rat at 2 mg/kg, po
Assay type: ADME, organism-based
Set-up: dose 2 mg/kg
particulars: in vivo
measured.parameter: AUC(0-t) (ng·h/mL)
Number only, in ng·h/mL; omit the unit.

Read off the recorded AUC(0-t) for CCc1nc(-c2ccc3c(c2)CC[C@H]3NC(=O)c2cnn(C)c2)no1 [AFICAMTEN]
9450

* * *

measurement.protocol: Plasma protein binding in rat plasma assessed as unbound concentration at 5 uM incubated for 6 hrs by HPLC analysis
Assay type: ADME, cell-free
measured.parameter: fraction unbound at 6 h, 5 µM

The examples below pair each entry with its known result.
CCc1nc(-c2ccc3c(c2)CCC3NC(=O)c2ccccc2)no1 (racemic)    0.023
Cc1cc(C(=O)N[C@@H]2CCc3cc(-c4noc(C(C)C)n4)ccc32)ccn1    0.053
Cc1nc(-c2ccc3c(c2)CCC3NC(=O)c2cnc(C)n2C)no1 (racemic)    0.089
Cc1nc(-c2ccc3c(c2)CC[C@H]3NC(=O)c2cnn(C)c2)no1    0.065

State, in one line, measured fraction unbound at 6 h, 5 µM of CCc1nc(-c2ccc3c(c2)CC[C@H]3NC(=O)c2ccnc(C)c2)no1
0.084

Identify fraction unbound at 6 h, 5 µM associated with the compound Cn1cc(C(=O)N[C@@H]2CCc3cc(-c4noc(C(F)F)n4)ccc32)cn1
0.024

Tell me its fraction unbound at 6 h, 5 µM given Cc1nc(-c2ccc3c(c2)CC[C@@H]3NC(=O)c2cnn(C)c2)no1 as the entry.
0.15

Look up and report measured fraction unbound at 6 h, 5 µM for this entry: Cc1nc(-c2ccc3c(c2)CCC3NC(=O)c2ccccc2)no1 (racemic)
0.043

Quote fraction unbound at 6 h, 5 µM reported for CC(C)c1nc(-c2ccc3c(c2)CC[C@H]3NC(=O)c2nnn(C)n2)no1 please.
0.17

Using the record for CCc1nc(-c2ccc3c(c2)CC[C@H]3NC(=O)c2ccnnc2)no1 , state its measured fraction unbound at 6 h, 5 µM.
0.31

* * *

measurement.protocol: Volume of distribution at steady state in cynomolgus monkey at 1 mg/kg, iv
Type: ADME, organism-based, Macaca fascicularis
particulars: in vivo, read-out: Vdss
measured.parameter: Vd (L/kg)
Please respond with the number in L/kg and leave the unit unwritten.

Determine from records and report Vd for CCc1nc(-c2ccc3c(c2)CC[C@H]3NC(=O)c2cnn(C)c2)no1 [AFICAMTEN]
7.76

* * *

Quick reference: half-life of the listed items.
measurement.protocol: Half life in Sprague-Dawley rat at 1 mg/kg
Assay type: ADME, organism-based
particulars: in vivo
Report only the number, with the unit h understood.

Before answering, review these 2 worked examples.
CCc1nc(-c2ccc3c(c2)CC[C@H]3NC(=O)c2cnc(C)o2)no1    4.1
CCc1nc(-c2ccc3c(c2)CC[C@H]3NC(=O)c2cc(C)ncn2)no1    5.9

Return half-life (reported value) for this compound: Cc1cc(C(=O)N[C@@H]2CCc3cc(-c4noc(C5CC5)n4)ccc32)ccn1
13.8

Check the records and state half-life for CCc1nc(-c2ccc3c(c2)CC[C@H]3NC(=O)c2ccnnc2)no1
6.6

Specify reported half-life for the compound shown: CCc1nc(-c2ccc3c(c2)CC[C@H]3NC(=O)c2nnn(C)n2)no1
6.3

For the compound CC(C)c1nc(-c2ccc3c(c2)CC[C@H]3NC(=O)c2nnn(C)n2)no1 , give its measured half-life value.
4.6

Quickly give me recorded half-life for Cn1nnc(C(=O)N[C@@H]2CCc3cc(-c4noc(C5CC5)n4)ccc32)n1
17.8

* * *

Reported values of bioavailability for individual entries
measurement.protocol: Bioavailability in Sprague-Dawley rat at 1 mg/kg, po or 1 mg/kg, iv
Assay type: ADME, organism-based
particulars: in vivo
Give the number; % is assumed, so skip it.

In the examples that follow, each entry is paired with its recorded bioavailability.
CCc1nc(-c2ccc3c(c2)CC[C@H]3NC(=O)c2ccnnc2)no1    16
Cc1cc(C(=O)N[C@@H]2CCc3cc(-c4noc(C(C)C)n4)ccc32)ccn1    79
CCc1nc(-c2ccc3c(c2)CC[C@H]3NC(=O)c2cnc(C)o2)no1    13
CCc1nc(-c2ccc3c(c2)CC[C@H]3NC(=O)c2ccnc(C)c2)no1    32
CCc1nc(-c2ccc3c(c2)CC[C@H]3NC(=O)c2cc(C)ncn2)no1    26
CCc1nc(-c2ccc3c(c2)CC[C@H]3NC(=O)c2ocnc2C)no1    0
Cc1cc(C(=O)N[C@@H]2CCc3cc(-c4noc(C5CC5)n4)ccc32)ccn1    70
CC(C)c1nc(-c2ccc3c(c2)CC[C@H]3NC(=O)c2nnn(C)n2)no1    52

Find the measured bioavailability of CCc1nc(-c2ccc3c(c2)CC[C@H]3NC(=O)c2cnn(C)c2)no1 [AFICAMTEN] and report it.
55

Identify bioavailability associated with the molecule CCc1nc(-c2ccc3c(c2)CC[C@H]3NC(=O)c2cn[nH]c2)no1
10

* * *

Below is a list of entries, each paired with its recorded fraction unbound value.
measurement.protocol: Plasma protein binding in rat assessed as unbound fraction
Format: ADME, cell-free
API note: the answer field is a bare number with no unit suffix.

Answered cases to consult:
CCc1nc(-c2ccc3c(c2)CC[C@H]3NC(=O)c2cnn(C)c2)no1    0.018
CCc1nc(-c2ccc3c(c2)CC[C@H]3NC(=O)c2cn[nH]c2)no1    0.2

Respond only with fraction unbound recorded for Cn1cc(C(=O)N[C@@H]2CCc3cc(-c4noc(C(F)F)n4)ccc32)cn1
0.024

* * *

measurement.protocol: Volume of distribution at steady state in Sprague-Dawley rat at 1 mg/kg, iv
Assay type: ADME, organism-based
particulars: in vivo, read-out: Vdss
measured.parameter: Vd (L/kg)
Write the number in L/kg without appending the unit.

// fetch Vd given entry CCc1nc(-c2ccc3c(c2)CC[C@H]3NC(=O)c2cnn(C)c2)no1
0.53

* * *

measurement.protocol: Inhibition of full-length myosin ATPase activity in bovine cardiac myofibrils
Format: subcellular, Bos taurus, Heart
measured.parameter: IC50 (µM)
Quick reminder: number only, in µM, skip the unit.

Completed entries (count: 7):
Cc1cc(C(=O)N[C@@H]2CCc3cc(-c4noc(C5CC5)n4)ccc32)ccn1    1.9
CCc1nc(-c2ccc3c(c2)CCC3NC(=O)c2ccccc2)no1 (racemic)    1
Cc1cc(C(=O)NC2CCc3cc(-c4noc(C)n4)ccc32)ccn1 (racemic)    7.1
CCc1nc(-c2ccc3c(c2)CC[C@H]3NC(=O)c2ccnnc2)no1    1.2
CCc1nc(-c2ccc3c(c2)CC[C@H]3NC(=O)c2cc(C)ncn2)no1    1.8
CCc1nc(-c2ccc3c(c2)CC[C@H]3NC(=O)c2cn[nH]c2)no1    1.1
Cn1cc(C(=O)N[C@@H]2CCc3cc(-c4noc(C(F)F)n4)ccc32)cn1    2.4

Now for a further molecule.
Using the record for CCc1nc(-c2ccc3c(c2)CC[C@H]3NC(=O)c2nnn(C)n2)no1 , state its measured IC50.
0.9

* * *

system.tested: CYP3A4 (Homo sapiens)
Sequence (P08684 whole entry): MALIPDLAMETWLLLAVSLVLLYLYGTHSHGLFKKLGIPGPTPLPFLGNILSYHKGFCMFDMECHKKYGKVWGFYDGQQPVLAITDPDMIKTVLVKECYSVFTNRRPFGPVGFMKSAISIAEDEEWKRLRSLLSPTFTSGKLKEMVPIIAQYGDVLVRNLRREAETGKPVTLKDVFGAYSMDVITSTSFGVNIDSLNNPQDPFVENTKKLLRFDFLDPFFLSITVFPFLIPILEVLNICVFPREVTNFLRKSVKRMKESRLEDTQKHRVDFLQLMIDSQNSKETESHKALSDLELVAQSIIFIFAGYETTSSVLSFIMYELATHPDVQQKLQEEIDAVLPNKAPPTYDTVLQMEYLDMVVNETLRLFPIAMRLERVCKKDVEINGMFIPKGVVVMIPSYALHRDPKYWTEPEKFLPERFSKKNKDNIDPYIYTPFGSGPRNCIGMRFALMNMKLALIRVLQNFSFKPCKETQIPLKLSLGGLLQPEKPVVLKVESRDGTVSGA
measurement.protocol: Induction of CYP3A4 in human hepatocytes assessed as mRNA expression incubated for 3 days by RT-RTPCR analysis
Assay type: ADME, cell-based, Hepatocyte
measured.parameter: EC50 at 3 days (µM)
Please state the figure in µM; there is no need to write the unit.

// Input: CC(C)n1c(=O)cc(N[C@@H](C)c2ccccc2)[nH]c1=O . Output its EC50 at 3 days only.
2.2

* * *

measurement.protocol: Tmax in Beagle dog at 1 mg/kg, po
Type: ADME, organism-based, Canis lupus familiaris
particulars: in vivo
measured.parameter: Tmax (min)
The reply should be a number in min, with the unit left off.

For CCc1nc(-c2ccc3c(c2)CC[C@H]3NC(=O)c2cnn(C)c2)no1 , write its Tmax.
19.8
